Entries annotated with measured OD450
target.system: T1, human LAG-3 protein with hFc tag (hLAG-3-hFc protein) (human, UniProt P18627 23-450)
T1 construct: also called immunogen 1; LAG-3 extracellular domain protein; not shown: human IgG Fc fragment (hFc) of the pCpC vector
T1 sequence: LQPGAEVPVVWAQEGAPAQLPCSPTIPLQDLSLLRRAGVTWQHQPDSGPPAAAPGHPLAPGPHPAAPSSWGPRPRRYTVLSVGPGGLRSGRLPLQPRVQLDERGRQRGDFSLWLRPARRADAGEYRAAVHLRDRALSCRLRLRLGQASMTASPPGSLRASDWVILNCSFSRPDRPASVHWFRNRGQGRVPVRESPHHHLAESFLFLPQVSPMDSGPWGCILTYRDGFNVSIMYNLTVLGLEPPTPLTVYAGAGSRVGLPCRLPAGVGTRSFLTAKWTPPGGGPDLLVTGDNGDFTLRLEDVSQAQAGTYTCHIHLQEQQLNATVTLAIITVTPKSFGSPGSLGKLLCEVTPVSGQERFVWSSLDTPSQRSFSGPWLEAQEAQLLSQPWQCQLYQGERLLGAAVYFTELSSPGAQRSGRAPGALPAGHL
experiment.summary: ELISA, hLAG-3-hFc coated; 0.0007 nM
measurement.type: OD450 (OD450)

# binder, measurement.type, display.unit, reported
data = [
    ("105F1E10 (LAG-3 mouse-human chimeric antibody) (antibody, V domains shown) VH: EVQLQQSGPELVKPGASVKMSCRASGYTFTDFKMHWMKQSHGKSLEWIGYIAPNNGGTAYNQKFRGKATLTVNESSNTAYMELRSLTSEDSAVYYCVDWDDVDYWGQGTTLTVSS VL: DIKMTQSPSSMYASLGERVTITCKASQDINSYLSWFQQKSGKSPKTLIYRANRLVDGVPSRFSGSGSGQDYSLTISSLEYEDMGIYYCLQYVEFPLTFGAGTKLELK", "OD450", "OD450", 0.2),
    ("409D4E10 (LAG-3 mouse-human chimeric antibody) (antibody, V domains shown) VH: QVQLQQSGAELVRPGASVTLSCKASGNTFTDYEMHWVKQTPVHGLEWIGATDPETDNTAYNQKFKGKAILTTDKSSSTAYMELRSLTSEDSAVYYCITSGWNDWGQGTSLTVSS VL: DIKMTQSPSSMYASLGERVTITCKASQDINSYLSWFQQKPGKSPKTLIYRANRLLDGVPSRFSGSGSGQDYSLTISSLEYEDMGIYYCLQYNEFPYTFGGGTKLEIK", "OD450", "OD450", 0.16),
    ("405B8H3 (LAG-3 mouse-human chimeric antibody) (antibody, V domains shown, also called mouse-human chimeric antibody 405B8H3) VH: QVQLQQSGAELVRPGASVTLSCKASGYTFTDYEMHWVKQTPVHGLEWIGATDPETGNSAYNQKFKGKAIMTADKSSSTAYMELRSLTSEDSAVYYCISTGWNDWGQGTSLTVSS VL: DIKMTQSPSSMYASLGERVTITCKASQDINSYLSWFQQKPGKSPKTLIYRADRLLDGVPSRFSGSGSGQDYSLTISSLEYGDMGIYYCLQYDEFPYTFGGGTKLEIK", "OD450", "OD450", 0.19),
    ("556F6B8 (LAG-3 mouse-human chimeric antibody) (antibody, V domains shown, also called 556F8B8) VH: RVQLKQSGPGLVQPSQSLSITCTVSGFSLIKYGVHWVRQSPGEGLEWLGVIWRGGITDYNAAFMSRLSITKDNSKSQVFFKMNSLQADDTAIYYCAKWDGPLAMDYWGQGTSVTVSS VL: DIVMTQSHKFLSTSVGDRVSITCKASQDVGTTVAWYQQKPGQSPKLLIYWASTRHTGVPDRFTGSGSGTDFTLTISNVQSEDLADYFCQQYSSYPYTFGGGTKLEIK", "OD450", "OD450", 0.17),
]
